Hey, just so you know, these numbers are from ChEMBL document CHEMBL3507680.

Exercise: state measured cytotoxicity at 70.5 h for each of the molecules provided.
Assay: Human HepG2 cell viability assay in 384 well format
Format: toxicity, cell-based
Design: dose 125 nL, time 70.5 hour; concentration not given beside the values
Conditions: HepG2 cells, read-out: Inhibition
I only need the number, in %, no unit after it.

Consider the molecule O=C(C1CC1)N1C[C@@H](F)[C@@H](OCc2nc3ccccc3o2)C1 . State its measured cytotoxicity at 70.5 h.
0.185

Consider the molecule O=C1CCC(C(=O)N2CCOC(Cc3ccccc3Cl)C2)=NN1 (stereo unspecified) . State its measured cytotoxicity at 70.5 h.
-8.63

Consider the molecule CC(C)=CCN1CC2(CCN(Cc3c(F)cccc3F)CC2)CC1=O . State its measured cytotoxicity at 70.5 h.
23.4

Consider the molecule CCC(CO)N(Cc1cccs1)C(=O)Cc1ccc(O)cc1 (stereo unspecified) . State its measured cytotoxicity at 70.5 h.
16.3

Consider the molecule Fc1cccnc1N1CCOCC2(CCCNC2)C1 (stereo unspecified) . State its measured cytotoxicity at 70.5 h.
0.635

Consider the molecule CC(=O)NCC(=O)N1CCc2nc(-c3ccccc3)nc(C)c2CC1 . State its measured cytotoxicity at 70.5 h.
-5.16

Consider the molecule CCCNC(=O)N1CCN(Cc2cc(C)no2)CC1 . State its measured cytotoxicity at 70.5 h.
-8.29

Consider the molecule O=C(NC1CC1)c1ccnc(N2CCOC(c3ccc(Cl)cc3)C2)c1 (stereo unspecified) . State its measured cytotoxicity at 70.5 h.
7.4

Consider the molecule CN(CCc1ccccc1)C1CCCN(Cc2nccn2C)C1 (stereo unspecified) . State its measured cytotoxicity at 70.5 h.
-4.92

Consider the molecule CCc1nc(C)cc(NC(C)C(=O)Nc2cc(F)ccc2C)n1 (stereo unspecified) . State its measured cytotoxicity at 70.5 h.
-15.5

Consider the molecule COc1cccc(CC2(CO)CCCN(c3nccs3)C2)c1 (stereo unspecified) . State its measured cytotoxicity at 70.5 h.
-1.79

Consider the molecule CCc1noc(CN(CCC2CCCCC2)CC(N)=O)n1 . State its measured cytotoxicity at 70.5 h.
-14.6

Consider the molecule Cc1nc(Nc2nnc(C)s2)cc(C2CCCN2)n1 (stereo unspecified) . State its measured cytotoxicity at 70.5 h.
-6.91

Consider the molecule Nc1cc(-c2cccc3c2CCNC3)ncn1 . State its measured cytotoxicity at 70.5 h.
-6.17

Consider the molecule CN1CCCC(c2nccnc2-c2cccc(Cl)c2)C1 (stereo unspecified) . State its measured cytotoxicity at 70.5 h.
-9.62

Consider the molecule CC(C)c1nc(CN(C)C(=O)CCNC(=O)c2ccccc2F)no1 . State its measured cytotoxicity at 70.5 h.
19.8

Consider the molecule CC(=O)NCCCC(=O)N1CCc2[nH]c(-c3ccccc3)nc2C1 . State its measured cytotoxicity at 70.5 h.
-5.92

Consider the molecule O=S(=O)(Cc1cccc(F)c1)Nc1cc(Cl)ccn1 . State its measured cytotoxicity at 70.5 h.
2.91

Consider the molecule COC(=O)C(NC(=O)c1cc(F)cc(F)c1)c1cccnc1 (stereo unspecified) . State its measured cytotoxicity at 70.5 h.
-8.87

Consider the molecule Cc1nc(C)c(CCNC(Cc2ccncc2)C(F)(F)F)s1 (stereo unspecified) . State its measured cytotoxicity at 70.5 h.
2.53

Consider the molecule Cc1nc(N2CCCC2C(=O)NC(C)(C)CO)nc2ccccc12 (stereo unspecified) . State its measured cytotoxicity at 70.5 h.
-7.7

Consider the molecule O=C(CC1CCc2ccccc21)NCCSc1cnn[nH]1 (stereo unspecified) . State its measured cytotoxicity at 70.5 h.
-9.43

Consider the molecule CC(NC(=O)c1ccc(F)cc1F)c1cnn(C)c1 (stereo unspecified) . State its measured cytotoxicity at 70.5 h.
-4.48

Consider the molecule CCOC(=O)NC(CNC(=O)CCc1ccccn1)CC(C)C (stereo unspecified) . State its measured cytotoxicity at 70.5 h.
-8.82

Consider the molecule Cc1occc1C(=O)N1CCC2(CCCN(CC3CCC3)C2=O)C1 (stereo unspecified) . State its measured cytotoxicity at 70.5 h.
-4.3

Consider the molecule COc1cc(C2(C(=O)NC3CCC4(CC3)OCCO4)CC2)ccc1C . State its measured cytotoxicity at 70.5 h.
-4.1

Consider the molecule Cc1ccc(N2Cc3cnn(Cc4ccc(F)cc4)c3C2)nn1 . State its measured cytotoxicity at 70.5 h.
-4.14

Consider the molecule CC(C)c1nccc(CN2CCCC(O)(CN(C)C)CC2)n1 (stereo unspecified) . State its measured cytotoxicity at 70.5 h.
-7.74

Consider the molecule Cc1cc(NC(=O)c2ccc(N3CCOCC3)c(F)c2)[nH]n1 . State its measured cytotoxicity at 70.5 h.
-1.35

Consider the molecule CN(C)C(=O)CNC(=O)c1ccc2c(-c3nccs3)noc2c1 . State its measured cytotoxicity at 70.5 h.
-3.55

Consider the molecule CCOCCCNC(=O)C1(C)CCC(=O)N1c1ccccc1F (stereo unspecified) . State its measured cytotoxicity at 70.5 h.
-3.95

Consider the molecule CS(=O)(=O)NCCCNc1ccc(C(F)(F)F)cc1C#N . State its measured cytotoxicity at 70.5 h.
-3.55

Consider the molecule CN(C)CCNC(=O)c1cc2n(n1)CCN(C(=O)c1ccco1)C2 . State its measured cytotoxicity at 70.5 h.
-5.47

Consider the molecule O=C(O)c1ccc2c(c1)C1(CCCCC1)CN2C(=O)c1cccs1 . State its measured cytotoxicity at 70.5 h.
-4.48

Consider the molecule Cc1oc(-c2ccco2)nc1CN1CCCC(Cn2cncn2)C1 (stereo unspecified) . State its measured cytotoxicity at 70.5 h.
39.6

Consider the molecule CCn1cc(C(=O)NCc2csc(C3CC3)n2)c(C)n1 . State its measured cytotoxicity at 70.5 h.
-3.62

Consider the molecule Cc1nc(CN2CCCN(CC(=O)Nc3ccncc3)CC2)no1 . State its measured cytotoxicity at 70.5 h.
5.91

Consider the molecule O=C(CCn1cncn1)NCCOc1cccc(Cl)c1 . State its measured cytotoxicity at 70.5 h.
-2.18

Consider the molecule CC(=O)N[C@@H]1CN(C2CCN(c3cccc(C)c3C)CC2)C[C@H]1C(C)C . State its measured cytotoxicity at 70.5 h.
-5.59

Consider the molecule CCn1c(C2CCCN(Cc3ccc(F)cc3Cl)C2)nn(C)c1=O (stereo unspecified) . State its measured cytotoxicity at 70.5 h.
6.43

Consider the molecule COC(=O)c1sc2nc3c(c(C(F)(F)F)c2c1N)CN(C(C)=O)CC3 . State its measured cytotoxicity at 70.5 h.
5.62
